# STUDY SYSTEM: T1, rat KLB (+N-ter FLAG) (rat, UniProt Q99N32 53-989 (mouse entry))
# T1 construct: expressed from KLB cDNA on HEK293T cells and read by FACS
# T1 chain: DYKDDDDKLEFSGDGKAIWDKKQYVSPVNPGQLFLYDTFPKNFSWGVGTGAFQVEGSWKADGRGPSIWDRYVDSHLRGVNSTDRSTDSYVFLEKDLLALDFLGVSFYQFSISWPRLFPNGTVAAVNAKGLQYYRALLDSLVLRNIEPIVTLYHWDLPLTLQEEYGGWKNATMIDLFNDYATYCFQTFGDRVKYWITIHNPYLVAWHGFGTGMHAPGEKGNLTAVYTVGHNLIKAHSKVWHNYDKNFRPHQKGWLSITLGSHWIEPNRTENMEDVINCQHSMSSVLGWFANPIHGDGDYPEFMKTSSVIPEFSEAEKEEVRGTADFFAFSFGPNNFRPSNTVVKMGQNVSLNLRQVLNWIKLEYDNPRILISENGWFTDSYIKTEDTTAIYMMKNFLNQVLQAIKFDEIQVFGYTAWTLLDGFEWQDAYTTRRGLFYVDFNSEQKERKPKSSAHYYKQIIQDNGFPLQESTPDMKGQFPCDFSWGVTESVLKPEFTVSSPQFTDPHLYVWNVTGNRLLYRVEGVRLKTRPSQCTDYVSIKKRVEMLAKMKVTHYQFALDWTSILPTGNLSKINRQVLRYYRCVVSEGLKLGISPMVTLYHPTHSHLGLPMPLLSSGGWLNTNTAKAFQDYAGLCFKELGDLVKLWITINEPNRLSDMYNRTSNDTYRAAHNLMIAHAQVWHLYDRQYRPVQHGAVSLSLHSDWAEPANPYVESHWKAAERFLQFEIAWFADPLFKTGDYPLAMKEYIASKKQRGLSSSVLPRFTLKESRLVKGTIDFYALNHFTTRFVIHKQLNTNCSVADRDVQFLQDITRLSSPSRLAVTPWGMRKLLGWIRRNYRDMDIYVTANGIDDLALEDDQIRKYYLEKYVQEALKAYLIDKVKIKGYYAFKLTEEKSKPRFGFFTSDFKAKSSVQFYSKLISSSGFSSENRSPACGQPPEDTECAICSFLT
# ASSAY COMMENT: FACS on transfected HEK293T cells

BINDER	binding result
14E6 (antibody, V domains shown, murine hybridoma-derived anti-KLB antibody) VH: EVPLQQSGPELVKPGATVKISCKPSGDTFTEYTMNWVRQSHGKSLEWIGGINPNNGETSYNQKFKGKATLTVDKSSSTAFMDLRILTSEDSAVYFCARKTTNYWGQGTTLIVSS VL: DIQMTQSPSSLSASLGERVSLTCRASQEISGYLSWLQQKPDGTIKRLIYAASTLDSGVPRRFSGSRSGSDYSLTISSLESEDFADYYCLQYGSYPWTFGGGTKLELK	binds
11D4 (antibody, V domains shown, murine hybridoma-derived anti-KLB antibody; also called KLBmAb5) VH: QVQVKESGPGLVAPSQSLSITCTVSGFSLTNYGVSWIRQPPGKGLEWLGVIWGDGSINYHSALISRLTITKDNSKSQVFLKLNSLEADDTATYYCAKTHDWFDYWGQGTLVTVSA VL: DIQMTQTPSSLSASLGDRVTINCRASQDISNYFNWYQQKPNGTIKLLIYYTSRLQSGVPSRFSGSGSGTDYSLTISNLEQEDKATYFCHQVRTLPWTFGGGTKLEIK	no binding
6C1 (antibody, V domains shown, murine hybridoma-derived anti-KLB antibody; also called KLBmAb4) VH: QVQLQQSGDELMKPGASVKISCKVTGNTFSSYWIEWVKQRPGHGLEWIGEILPGSDSTKYVEKFKVKATFTADTSSNTAYMQLSSLTSEDSAVYYCARGGYHYPGWLVYWGQGTLVTVSA VL: DIVMTQSQKFMSTSVGDRVSVTCKASQNVDSYVAWYQQKAGQSPKPLIYSASYRFSGVPDRFTGSGSGTEFTLTISNVQSEDLAEYFCQQYNISPYTFGGGTKLEIK	no binding

Value source: patent US20220064331A1
